Test system: LOC_OS03G12390-cb001
assay_overview: thermal shift delta Tm vs DMSO control; higher = stronger stabilization (binding);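 note: purified Escherichia coli-expressed rice kinase domain construct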
condition_label: 12.5 µM; protein concentration 2 µM
Is thermal shift delta Tm at least 0.3 °C? Then YES. If not, NO.

Worked cases, answers included:
CNC(=O)Nc1ccc(-c2nc(N3CC4CCC(C3)O4)c3cnn(C4CCC5(CC4)OCCO5)c3n2)cc1
NO
C=C(C)[C@@H]1CC[C@]2(C)CC[C@]3(C)[C@H](CC[C@@H]4[C@@]5(C)CC[C@H](O)C(C)(C)[C@@H]5CC[C@]43C)[C@@H]12 [Lupeol]
NO
O=C(O)c1ccc2c(c1)nc(Nc1cccc(Cl)c1)c1ccncc12 [Silmitasertib (CX-4945)]
YES

Given the entry COc1cc2ncnc(Oc3ccc(CC(=O)Nc4cnn(C(C)C)c4)cc3)c2cc1OC , answer whether its thermal shift delta Tm meets or surpasses 0.3 °C.
YES

Try this molecule next: Cc1cc(Nc2cc(N3CCN(C)CC3)nc(/C=C/c3ccccc3)n2)n[nH]1 [ENMD-2076 L-(+)-Tartaric acid]
YES

Try this molecule next: Cc1cc(C(=O)Nc2nc3cccc(Cl)c3n2[C@@H]2CCCCN(C(=O)/C=C/CN(C)C)C2)ccn1 [Nazartinib (EGF816, NVS-816)]
YES

Try this molecule next: Cc1cc2c(F)c(Oc3ncnn4cc(OC[C@@H](C)O)c(C)c34)ccc2[nH]1
NO

Try this molecule next: CCc1cncnc1N1CCN(Cc2nc3ccc(C(F)(F)F)cc3[nH]2)CC1
NO

Try this molecule next: Cc1ccc(-n2nc(C(C)(C)C)cc2NC(=O)NCc2cc(F)ccc2Oc2ccc3c(cnn3CCO)c2)cc1 [Pexmetinib (ARRY-614)]
YES

Try this molecule next: CC(C)CCN1c2nc(Nc3cc(F)c(O)c(F)c3)ncc2N(C)C(=O)C1C (stereo not drawn)
YES

Try this molecule next: O=C(NCCO)c1cccc(-c2cc(Nc3ccc(OC(F)(F)F)cc3)ncn2)c1
NO

Try this molecule next: Cc1cc(C)c(/C=C2\C(=O)Nc3ccccc32)[nH]1 [Semaxanib (SU5416)]
YES

Try this molecule next: N[C@@H]1CCCN(c2c(/C=C3\SC(=O)NC3=O)cccc2-c2ccccc2)C1
NO

Try this molecule next: Oc1c2ccccc2c2c3c(cccc13)N=N2
YES

Try this molecule next: CNC(=O)c1cc(Oc2ccc(NC(=O)Nc3ccc(Cl)c(C(F)(F)F)c3)cc2)ccn1 [Sorafenib]
YES

Try this molecule next: CC(C)(C)c1cnc(CSc2cnc(NC(=O)C3CCNCC3)s2)o1
NO

Try this molecule next: CC(C)N(CCC(=O)c1ccc2ccccc2c1)Cc1ccccc1
NO

Try this molecule next: Cc1[nH]c(/C=C2\C(=O)Nc3ccc(S(=O)(=O)N(C)c4cccc(Cl)c4)cc32)c(C)c1C(=O)N1CCN(C)CC1
YES

* * *

The following compounds are listed with their measured thermal shift delta Tm values.
Tested on: LOC_OS02G14120-cb001
assay_overview: thermal shift delta Tm vs DMSO control; higher = stronger stabilization (binding)
condition_label: 12.5 µM; protein concentration 2 µM
Please give a number only; it is taken to be in °C.

Example compounds with recorded thermal shift delta Tm:
CC1Oc2cc(cnc2N)-c2c(nn(C)c2C#N)CN(C)C(=O)c2ccc(F)cc21 (centres undefined)
6.77
C=CC(=O)Nc1cccc(Nc2nc(Nc3ccc(NC4CN(CCF)C4)cc3OC)ncc2C(F)(F)F)c1
1.12
CN1CCN(c2ccc3nc(-c4c(N)c5c(F)cccc5[nH]c4=O)[nH]c3c2)CC1 [Dovitinib (TKI258) Lactate]
6.8
CC1(C)C=Cc2c(ccc3c2OC[C@@H](c2ccc(O)cc2O)C3)O1 [Glabridin]
0.34
COc1cccc2cc(-c3nc([C@H]4CC[C@H](C(=O)O)CC4)n4ncnc(N)c34)[nH]c12
0.19

Can you share its thermal shift delta Tm? I mean this compound: FC(F)(F)c1ccc(CNc2ccc(Cc3c[nH]c4ncc(Cl)cc34)cn2)cn1 [Pexidartinib (PLX3397)]
9.87

Try this compound next: Cc1c(NC(=O)OC[C@@H]2COCCN2)cn2ncnc(Nc3ccc4c(cnn4Cc4cccc(F)c4)c3)c12
0.51

Try this compound next: Cn1cc(/C=C2\C(=O)Nc3cccnc32)c2ccccc21
3.15

Try this compound next: CC1(C)OCCn2c1nc1c(N3CCOCC3)nc(-c3cnc(N)nc3)nc12
0.72

* * *

The following molecules are listed with their measured thermal shift delta Tm values.
Tested on: LOC_OS01G39600-cb002
assay_overview: thermal shift delta Tm vs DMSO control; higher = stronger stabilization (binding)
condition_label: 12.5 µM; protein concentration 2 µM
Please give a number only; it is taken to be in °C.

O=C(O[C@@H]1Cc2c(O)cc(O)cc2O[C@@H]1c1cc(O)c(O)c(O)c1)c1cc(O)c(O)c(O)c1 [(-)-Epigallocatechin Gallate]
1.4

Query the reported thermal shift delta Tm for LOC_OS01G39600-cb002; item: Cc1cnc(Nc2ccc(OCCN3CCCC3)cc2)nc1Nc1cccc(S(=O)(=O)NC(C)(C)C)c1
5.09

Try this molecule next: COc1ccc(-c2cc3c(C)nc(N)nc3n([C@H]3CC[C@H](OCCO)CC3)c2=O)cn1
0.34

Try this molecule next: C=C(C)[C@@H]1CC[C@]2(C)CC[C@]3(C)[C@H](CC[C@@H]4[C@@]5(C)CC[C@H](O)C(C)(C)[C@@H]5CC[C@]43C)[C@@H]12 [Lupeol]
0.07

Try this molecule next: CC(C)(C)c1nc(-c2ccc(NC(=O)Nc3cccc(C(F)(F)F)c3)c3ccccc23)c2c(N)nccn12 [kira6]
1.51

Try this molecule next: CNC(=O)c1ccccc1Nc1cc(Nc2ccc(N3CCOCC3)cc2OC)ncc1C(F)(F)F
0.34

Try this molecule next: CCN(CC)CCCCNc1ncc2cc(-c3cc(OC)cc(OC)c3)c(NC(=O)NC(C)(C)C)nc2n1
-0.12

Try this molecule next: O=c1sn(-c2cccc3ccccc23)c(=O)n1Cc1ccccc1 [Tideglusib]
1.37

* * *

Test system: LOC_OS04G41100-cb001
Sequence (as listed by the source): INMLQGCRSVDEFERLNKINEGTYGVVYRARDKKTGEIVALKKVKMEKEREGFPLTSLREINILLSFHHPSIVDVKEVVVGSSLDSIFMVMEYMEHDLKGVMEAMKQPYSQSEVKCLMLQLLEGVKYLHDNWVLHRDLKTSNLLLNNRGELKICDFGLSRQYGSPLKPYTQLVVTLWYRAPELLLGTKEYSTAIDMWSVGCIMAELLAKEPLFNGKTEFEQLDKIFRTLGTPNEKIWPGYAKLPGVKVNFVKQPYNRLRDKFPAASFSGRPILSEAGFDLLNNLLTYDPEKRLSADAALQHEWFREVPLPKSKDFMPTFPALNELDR
assay_overview: thermal shift delta Tm vs DMSO control; higher = stronger stabilization (binding)
condition_label: 12.5 µM; protein concentration 2 µM
Where a name gives a salt, the structure may show the parent alone.
reported_metric: thermal shift delta Tm
Returns: string containing the number followed by the unit.

Example compounds with recorded thermal shift delta Tm:
CC(C)(C)c1nc(-c2cccc(NS(=O)(=O)c3c(F)cccc3F)c2F)c(-c2ccnc(N)n2)s1
2.47 °C
NC(=O)c1cnc2[nH]ccc2c1N[C@@H]1[C@@H]2CC3C[C@H]1C[C@@](O)(C3)C2
1.15 °C

Query the reported thermal shift delta Tm for LOC_OS04G41100-cb001; item: CC[C@@H]1C(=O)N(C)c2cnc(Nc3ccc(C(=O)NC4CCN(C)CC4)cc3OC)nc2N1C1CCCC1
0.39 °C

Try this compound next: CN1CC[C@H](c2c(O)cc(O)c3c(=O)cc(-c4ccccc4Cl)oc23)[C@H](O)C1 [Flavopiridol HCl]
0.56 °C

Try this compound next: C=CC(=O)N1CCC(Oc2cc3c(Nc4ccc(Cl)c(Cl)c4F)ncnc3cc2OC)CC1 [Poziotinib (HM781-36B)]
0.18 °C

Try this compound next: NC1(Cc2ccc(Cl)cc2)CCN(c2ncnc3[nH]ccc23)CC1
0.33 °C

Try this compound next: COC(=O)Nc1ccc(-c2nc(N3CCOCC3)c3cnn(C4CCN(C(=O)OC)CC4)c3n2)cc1
0.47 °C

* * *

Test system: LOC_OS01G21960-cb002
assay_overview: thermal shift delta Tm vs DMSO control; higher = stronger stabilization (binding)
condition_label: 12.5 µM; protein concentration 2 µM
Is thermal shift delta Tm at least 0.7 °C? Then 1 (yes). If not, 0 (no).

CC[C@H](CO)Nc1nc(NCc2ccccc2)c2ncn(C(C)C)c2n1 [Roscovitine (Seliciclib,CYC202)]
0 (no)
CCCS(=O)(=O)Nc1ccc(F)c(C(=O)c2c[nH]c3ncc(-c4ccc(Cl)cc4)cc23)c1F
1 (yes)
CO[C@H]1C[C@@H]2CC[C@@H](C)[C@@](O)(O2)C(=O)C(=O)N2CCCC[C@H]2C(=O)O[C@H]([C@H](C)C[C@@H]2CC[C@@H](OC(=O)C(C)(CO)CO)[C@H](OC)C2)CC(=O)[C@H](C)/C=C(\C)[C@@H](O)[C@@H](OC)C(=O)[C@H](C)C[C@H](C)/C=C/C=C/C=C/1C
0 (no)
C=CC(=O)Nc1cccc(Oc2nc(Nc3ccc(N4CCN(C)CC4)cc3OC)ncc2Cl)c1
0 (no)
C[C@@H](Nc1cc(F)cc(F)c1)c1cc(C(=O)N(C)C)cc2c(=O)cc(N3CCOCC3)oc12
0 (no)

With those in mind, consider the next molecule.
Given the entry c1cc(-c2cnn3cc(-c4ccc(OCCN5CCCCC5)cc4)cnc23)ccn1 [Dorsomorphin 2HCl] , answer whether its thermal shift delta Tm meets or surpasses 0.7 °C.
1 (yes)
